B1: LINE1-full (parent)
chain: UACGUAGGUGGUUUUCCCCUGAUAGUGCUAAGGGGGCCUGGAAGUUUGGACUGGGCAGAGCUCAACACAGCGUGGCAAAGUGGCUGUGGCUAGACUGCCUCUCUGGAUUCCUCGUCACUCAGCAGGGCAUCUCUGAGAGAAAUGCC

Variants of: B1
Test: self-cleavage, relative activity (ratio to wild type); higher = more cleavage; in vitro, sequencing; the parent is a self-cleaving ribozyme
Each record's self-cleavage is compared with low-valued (below 0.3), mid-valued (0.3 to below 1), high-valued (1 or more) to give its class.

Prompt: Lab note: sort UACGUAGGAGGUUUUCCCCUGAUGGUGCUAAGGGGGCCUGGAAGUUUGGACUGGGCAGAGCUCAACACAGCGUGGCAAAGUGGCUGUGGCUAGACUGCCUCUCUGGAUUCCUCGUCACUCAGCAGGGCAUCUCUGAGAGAAAUGCC [U9A A24G] into the matching self-cleavage band.
Response: mid-valued

Prompt: # bin lookup: classify UACGUAGGUGGUUUACCCCUGAUAGUGCUAAGGGGGCCUGGAAGUUUGGACUGGGCAGAGCUCAACACAGCGUGGCAAAGUGGCUGUGGCUAGACUGCCUCUAUGGAUUCCUCGUCACUCAGCAGGGCAUCUCUGAGAGAAAUGCC [U15A C103A] by its self-cleavage
Response: high-valued

Values from the RNAGym collection of RNA variant scans (doi:10.7554/elife.90254)
